# ASSAY TARGET: plasmin (Homo sapiens, UniProt P00747)
# Sequence (P00747 581-810 limits assumed, species assumed): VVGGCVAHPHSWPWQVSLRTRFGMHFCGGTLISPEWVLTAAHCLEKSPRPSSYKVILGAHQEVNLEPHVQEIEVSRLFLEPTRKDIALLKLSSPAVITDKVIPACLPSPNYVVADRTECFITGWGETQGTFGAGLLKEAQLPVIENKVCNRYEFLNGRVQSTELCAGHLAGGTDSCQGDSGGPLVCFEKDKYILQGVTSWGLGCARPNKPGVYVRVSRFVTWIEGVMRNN
# Sequence (P00747 97-580 partner limits assumed, species assumed): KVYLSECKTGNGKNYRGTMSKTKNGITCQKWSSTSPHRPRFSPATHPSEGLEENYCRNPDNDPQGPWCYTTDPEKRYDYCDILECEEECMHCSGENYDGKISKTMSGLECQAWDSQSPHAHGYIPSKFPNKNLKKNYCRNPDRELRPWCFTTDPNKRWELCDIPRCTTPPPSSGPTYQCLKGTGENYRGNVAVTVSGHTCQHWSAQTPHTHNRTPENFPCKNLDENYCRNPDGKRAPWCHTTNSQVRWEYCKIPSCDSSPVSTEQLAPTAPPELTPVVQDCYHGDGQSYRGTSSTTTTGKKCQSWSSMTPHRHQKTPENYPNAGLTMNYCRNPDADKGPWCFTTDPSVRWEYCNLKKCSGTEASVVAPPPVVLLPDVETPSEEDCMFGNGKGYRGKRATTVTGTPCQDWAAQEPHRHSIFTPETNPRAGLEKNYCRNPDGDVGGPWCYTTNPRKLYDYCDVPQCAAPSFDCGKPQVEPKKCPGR
# PROCEDURE SUMMARY: anti-plasmin activity, hydrolysis of TAME (tosylarginine methyl ester)
# Assay type: biochemical
# CONDITIONS: hydrolysis of TAME; read-out: Pla: molar concentration inhibiting 50% of enzyme activity (IC50)
# Method: The values in Table 1 represent molar concentrations (IC50) of test compounds which inhibit 50% of the activity of each enzyme to hydrolyze TAME (tosylarginine methyl ester). The anti-trypsin, anti-plasmin, anti-kallikrein and anti-thrombin activities were determined according to the method of Muramatsu et al. (J. Biochem. (1965), volume 58, page 214).
Where a name gives a salt, the structure may show the parent alone.
ENDPOINT LABEL: IC50 (nM)

COMPOUND	ASSAY TARGET	VALUE MEASURED
CC(C)(C)OC(=O)CCCC(=O)NCc1ccc(C(=O)Oc2ccc3cc(C(=N)N)ccc3c2)o1 [Example 19, hydrochloride]	plasmin (Homo sapiens, UniProt P00747)	170
CC(C)(C)OC(=O)CC(=O)NCc1ccc(C(=O)Oc2ccc3cc(C(=N)N)ccc3c2)o1 [Example 15, hydrochloride]	plasmin (Homo sapiens, UniProt P00747)	310
CC(C)(C)OC(=O)c1ccc(CC(=O)NCc2ccc(C(=O)Oc3ccc4cc(C(=N)N)ccc4c3)o2)cc1 [Example 5, hydrochloride]	plasmin (Homo sapiens, UniProt P00747)	100
Cl.N=C(N)c1ccc2cc(OC(=O)c3ccc(CNC(=O)[C@H]4CC[C@H](C(=O)O)CC4)o3)ccc2c1 [Example 11, hydrochloride]	plasmin (Homo sapiens, UniProt P00747)	400
N=C(N)c1ccc2cc(OC(=O)c3ccc(CNC(=O)c4ccc(CCC(=O)O)cc4)o3)ccc2c1 [Example 9, hydrochloride]	plasmin (Homo sapiens, UniProt P00747)	500
CC(C)(C)OC(=O)C=Cc1ccc(C(=O)NCc2ccc(C(=O)Oc3ccc4cc(C(=N)N)ccc4c3)o2)cc1 [Example 1, hydrobromide]	plasmin (Homo sapiens, UniProt P00747)	150
N=C(N)c1ccc2cc(OC(=O)c3ccc(CNC(=O)CCC(=O)O)o3)ccc2c1 [Example 21, hydrochloride]	plasmin (Homo sapiens, UniProt P00747)	330
COC(=O)Cc1ccc(C(=O)NCc2ccc(C(=O)Oc3ccc4cc(C(=N)N)ccc4c3)o2)cc1 [Example 4, hydrochloride]	plasmin (Homo sapiens, UniProt P00747)	72
N=C(N)c1ccc2cc(OC(=O)c3ccc(CNC(=O)C=Cc4ccc(C(=O)O)cc4)o3)ccc2c1 [Example 8, hydrochloride]	plasmin (Homo sapiens, UniProt P00747)	1100
Cl.N=C(N)c1ccc2cc(OC(=O)c3ccc(CNC(=O)CCCC(=O)O)o3)ccc2c1 [Example 22, hydrochloride]	plasmin (Homo sapiens, UniProt P00747)	430
Cl.N=C(N)c1ccc2cc(OC(=O)c3ccc(CNC(=O)c4ccc(C=CC(=O)O)cc4)o3)ccc2c1 [Example 2, hydrochloride]	plasmin (Homo sapiens, UniProt P00747)	4800
CN(C)C(=O)COC(=O)CCC(=O)NCc1ccc(C(=O)Oc2ccc3cc(C(=N)N)ccc3c2)o1 [Example 31, hydrochloride]	plasmin (Homo sapiens, UniProt P00747)	160
Cl.N=C(N)c1ccc2cc(OC(=O)c3ccc(CNC(=O)Cc4ccc(C(=O)O)cc4)o3)ccc2c1 [Example 6, hydrochloride]	plasmin (Homo sapiens, UniProt P00747)	260
Cc1oc(=O)oc1COC(=O)CCC(=O)NCc1ccc(C(=O)Oc2ccc3cc(C(=N)N)ccc3c2)o1 [Example 33, hydrochloride]	plasmin (Homo sapiens, UniProt P00747)	84
N=C(N)c1ccc2cc(OC(=O)c3ccc(CNC(=O)c4ccc(CC(=O)O)cc4)o3)ccc2c1 [Example 7, hydrochloride]	plasmin (Homo sapiens, UniProt P00747)	300
N=C(N)c1ccc2cc(OC(=O)c3ccc(CNC(=O)/C=C\C(=O)O)o3)ccc2c1 [Example 12, methanesulfonate]	plasmin (Homo sapiens, UniProt P00747)	270
COC(=O)CCC(=O)NCc1ccc(C(=O)Oc2ccc3cc(C(=N)N)ccc3c2)o1.Cl [Example 34, hydrochloride]	plasmin (Homo sapiens, UniProt P00747)	130
Cl.N=C(N)c1ccc2cc(OC(=O)c3ccc(CNC(=O)c4ccc(C(=O)O)cc4)o3)ccc2c1 [Example 3, hydrochloride]	plasmin (Homo sapiens, UniProt P00747)	8600
Cl.N=C(N)c1ccc2cc(OC(=O)c3ccc(CNC(=O)CC(=O)O)o3)ccc2c1 [Example 17, hydrochloride]	plasmin (Homo sapiens, UniProt P00747)	43
N=C(N)c1ccc2cc(OC(=O)c3ccc(CNC(=O)[C@H]4CC[C@@H](C(=O)O)CC4)o3)ccc2c1 [Example 10, hydrochloride]	plasmin (Homo sapiens, UniProt P00747)	150
N=C(N)c1ccc2cc(OC(=O)c3ccc(CNC(=O)C(=O)O)o3)ccc2c1 [Example 16, hydrochloride]	plasmin (Homo sapiens, UniProt P00747)	240
CC(C)(C)OC(=O)CCC(NC(=N)N)C(=O)NCc1ccc(C(=O)Oc2ccc3cc(C(=N)N)ccc3c2)o1 (centres unmarked) [Example 20, hydrochloride hydrobromide]	plasmin (Homo sapiens, UniProt P00747)	180
N=C(N)NC(CCC(=O)O)C(=O)NCc1ccc(C(=O)Oc2ccc3cc(C(=N)N)ccc3c2)o1 (centres unmarked) [Example 29, dihydrobromide]	plasmin (Homo sapiens, UniProt P00747)	230
